Data provenance: paper PMC4300553

target: Src kinase domain (Gallus gallus); construct: chicken c-Src (residues 251–533); made in house; test: Isothermal titration calorimetry, nucleotide binding to Src kinase domain; parameters: species or system chicken; conditions: isothermal titration calorimetry, 25 °C, 20 mM Tris (pH 8.0), 250 mM NaCl, 10 mM MgCl2
metric: Kd

Requested read-out: Kd. Entry: Nc1ncnc2c1ncn2[C@@H]1O[C@H](COP(=O)(O)OP(=O)(O)NP(=O)(O)O)[C@@H](O)[C@H]1O [AMP-PNP] 45 to 100 µM

Could you share which Kd value was measured for Nc1ncnc2c1ncn2[C@@H]1O[C@H](COP(=O)(O)OP(=O)(O)O)[C@@H](O)[C@H]1O [ADP] ? 45 to 100 µM
